# Test Name: Binding affinity to Hsp90 after 4 hrs by GM-FITC based fluorescence polarization assay
# key: entry, value: pIC50
In your answer, state the number alone without any accompanying words.

The following compounds have reported results that may help.
>>> measured("O=C1c2ccncc2C(=O)c2c(-c3ccncc3)noc21")
6.92
>>> measured("COc1cccc2c1C(=O)c1c(-c3ccncc3)noc1C2=O")
5.72
>>> measured("O=C1c2ccccc2C(=O)c2c(-c3ccc4[nH]ccc4c3)noc21")
5.71
>>> measured("O=C1c2ccccc2C(=O)c2c(-c3cccc[n+]3Cc3ccccc3)noc21.[Br-]")
3.7

Moving on to the next compound.
Identify measured pIC50 associated with C[n+]1ccc(-c2noc3c2C(=O)c2ccccc2C3=O)cc1.[I-]
6.2

---

# Test Name: Binding affinity to Hsp90 after 4 hrs by GM-FITC based fluorescence polarization assay
Experimental Readout: IC50 (nM)
State just the number; it will be interpreted in nM.

Observe how each entry below is paired with its result.
>>> measured("O=C1c2ccccc2C(=O)c2c(-c3ccccc3O)noc21")
1550
>>> measured("C[n+]1ccc(-c2noc3c2C(=O)c2ccccc2C3=O)cc1.[I-]")
630
>>> measured("O=C1c2ccccc2C(=O)c2c(-c3ccccn3)noc21")
1060
>>> measured("O=C1c2ccccc2C(=O)c2c(-c3cccnc3)noc21")
540
>>> measured("O=C1c2cccc(O)c2C(=O)c2c(-c3cc[n+](Cc4ccccc4)cc3)noc21.[Br-]")
98

Fill in IC50 for record O=C1c2ccncc2C(=O)c2c(-c3ccncc3)noc21
120

Respond only with IC50 recorded for O=C1c2ccccc2C(=O)c2c(-c3cc[n+](Cc4cnccn4)cc3)noc21.[Br-]
680

Tell us which IC50 value is on record for COc1cccc2c1C(=O)c1c(-c3ccncc3)noc1C2=O
1900

In one line, give reported IC50 of the entry COc1cccc2c1C(=O)c1c(-c3cc[n+](Cc4ccccc4)cc3)noc1C2=O.[Br-] .
340

Fill in reported IC50 for this entry: COc1ccc(-c2noc3c2C(=O)c2ccccc2C3=O)cc1
5840

Specify measured IC50 for C=CCNC1=C2C[C@@H](C)C[C@H](OC)[C@H](O)[C@@H](C)/C=C(\C)[C@H](OC(N)=O)[C@@H](OC)/C=C\C=C(/C)C(=O)NC(=CC1=O)C2=O .
1100

// Input: O=C1c2ccccc2C(=O)c2c(-c3cccc[n+]3Cc3ccccc3)noc21.[Br-] . Output its IC50 only.
200000

Write down IC50 measured for item COc1ccccc1-c1noc2c1C(=O)c1ccccc1C2=O
200000

Could you please provide reported IC50 for O=C1c2cccc(O)c2C(=O)c2c(-c3ccc(F)cc3)noc21 ? Thanks!
290

Assign IC50 to the following record: O=C1c2ccccc2C(=O)c2c(-c3cc[n+](Cc4ccccc4)cc3)noc21.[Br-]
34

Entry COc1ccc(-c2noc3c2C(=O)c2cnccc2C3=O)cc1 needs its IC50 filled in; supply it.
1600

Output measured IC50 for this item: O=C1c2ccccc2C(=O)c2c(-c3cc(Cl)c(O)cc3O)noc21
4200

---

This listing pairs molecules with measured pIC50.
# Test Name: Binding affinity to Hsp90 after 4 hrs by GM-FITC based fluorescence polarization assay
Answer as a number with no unit attached.

>>> measured("O=C1c2ccccc2C(=O)c2c(-c3cc[n+](Cc4ccccc4)cc3)noc21.[Br-]")
7.47
>>> measured("CC(=O)Oc1cccc2c1C(=O)c1c(-c3ccncc3)noc1C2=O")
7.08
>>> measured("O=C1c2ccncc2C(=O)c2c(-c3ccc(F)cc3)noc21")
5.25

Tell us which pIC50 value is on record for O=C1c2cccc(O)c2C(=O)c2c(-c3ccc(F)cc3)noc21
6.54

Fill in reported pIC50 for this entry: O=C1c2cccc(O)c2C(=O)c2c(-c3cc[n+](Cc4ccccc4)cc3)noc21.[Br-]
7.01

All figures here come from ChEMBL document CHEMBL2034908.
